molecular target: human Werner helicase (WRN-BV08, Uniprot Q14191, amino acids 517-1235 with L1074F point mutation) (Homo sapiens, UniProt Q14191, L1074F); construct: Uniprot Q14191, amino acids 517-1235 with L1074F point mutation; TEV-cleavable 8×His (C, cleaved yes); made in house; host or cells: Sf9 insect cells (baculovirus); assay: WRN (BV08) ADP-Glo Assay; format: biochemical; details: 0.15 nM WRN, 5 μM ATP, 0.1 nM DNA duplex, 15 min preincubation, 60 min at 25° C., pH 7.5, 1% DMSO; read-out: ADP-Glo_hWRN_IC50
Sequence (Q14191 with tags, fused parts or gaps L1074F limits assumed): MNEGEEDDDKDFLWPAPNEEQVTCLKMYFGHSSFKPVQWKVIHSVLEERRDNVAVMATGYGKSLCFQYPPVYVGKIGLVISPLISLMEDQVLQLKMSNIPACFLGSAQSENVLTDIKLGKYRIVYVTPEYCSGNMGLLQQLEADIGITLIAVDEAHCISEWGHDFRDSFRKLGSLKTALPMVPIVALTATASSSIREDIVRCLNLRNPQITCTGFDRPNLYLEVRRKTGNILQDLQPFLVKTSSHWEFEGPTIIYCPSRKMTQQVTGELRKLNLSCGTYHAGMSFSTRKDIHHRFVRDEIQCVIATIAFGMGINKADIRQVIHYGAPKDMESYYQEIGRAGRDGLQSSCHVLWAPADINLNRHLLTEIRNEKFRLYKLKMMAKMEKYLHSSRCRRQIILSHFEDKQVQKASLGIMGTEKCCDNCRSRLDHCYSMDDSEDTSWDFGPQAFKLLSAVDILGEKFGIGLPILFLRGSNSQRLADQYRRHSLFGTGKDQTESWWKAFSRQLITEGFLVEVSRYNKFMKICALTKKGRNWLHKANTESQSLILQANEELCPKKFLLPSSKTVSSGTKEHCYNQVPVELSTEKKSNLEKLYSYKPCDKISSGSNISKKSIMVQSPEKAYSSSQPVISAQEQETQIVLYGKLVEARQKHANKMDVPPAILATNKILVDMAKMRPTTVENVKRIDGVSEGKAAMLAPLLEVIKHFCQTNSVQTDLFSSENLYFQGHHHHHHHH
Task for the reader: assign each of the following compounds its reported IC50.

Reported IC50, compound O=C(Cn1ncc2ccccc21)N(Cc1ccncc1)C1C=CS(=O)(=O)C1 (stereo not drawn) [I-454] : ____
> 50 µM

Reported IC50, compound Cc1cnc(CN(C(=O)Cc2ccc(-n3cccc3)cc2)C2C=CS(=O)(=O)C2)s1 (stereo not drawn) [I-274] : ____
5 to 10 µM

Reported IC50, compound Cc1nc(CN(C(=O)Cc2ccc(S(F)(F)(F)(F)F)cc2)C2C=CS(=O)(=O)C2)sc1C (stereo not drawn) [I-612] : ____
< 0.5 µM

Reported IC50, compound Cc1cccn1-c1ccc(CC(=O)N(Cc2ccc(C(=O)N(C)Cc3cn(Cc4ccc(NC(=O)CCOCCOCCOCCOCCNC(=O)CCCC[C@@H]5SC[C@@H]6NC(=O)N[C@@H]65)cn4)nn3)cc2)C2C=CS(=O)(=O)C2)c(F)c1 (single isomer, unassigned) [II-1] : ____
0.5 to 5 µM

Reported IC50, compound O=C(Cc1ccc(-n2cccc2)cc1F)N(Cc1ccncc1)C1C=CS(=O)(=O)C1 (stereo not drawn) [I-161] : ____
0.5 to 5 µM

Reported IC50, compound COc1cc(CN(C(=O)C(c2ccc(-c3ccc(F)c(F)c3)cc2F)n2ncnn2)[C@@H]2C=CS(=O)(=O)C2)ccn1 (stereo partly drawn) [I-731] : ____
> 50 µM

Reported IC50, compound O=C(Cc1ccc(-n2cccc2)cc1)N(Cc1cccc(Br)c1)C1C=CS(=O)(=O)C1 (stereo not drawn) [I-157] : ____
0.5 to 5 µM

Reported IC50, compound O=C([C@H]1C[C@@H](c2ccccc2)C1)N(Cc1ccncc1)C1C=CS(=O)(=O)C1 (stereo partly drawn) [I-611] : ____
> 50 µM

Reported IC50, compound COc1cc(CN(C(=O)C(c2ccc(-c3ccc(F)c(F)c3)cc2F)n2nccn2)[C@@H]2C=CS(=O)(=O)C2)ccn1 (stereo partly drawn) [I-733] : ____
< 0.5 µM

Reported IC50, compound O=C(Cn1cc2ccccc2n1)N(Cc1ccncc1)C1C=CS(=O)(=O)C1 (stereo not drawn) [I-433] : ____
> 50 µM

Reported IC50, compound COc1cc(C(C)N(C(=O)Cn2cc(-c3cc(F)c(F)c(F)c3)cn2)C2C=CS(=O)(=O)C2)ccn1 (stereo not drawn) [I-820] : ____
< 0.5 µM

Reported IC50, compound O=C(Cc1ccc(-n2cccc2)cc1F)N(Cc1ccc(Br)cc1)C1C=CS(=O)(=O)C1 (stereo not drawn) [I-122] : ____
0.5 to 5 µM

Reported IC50, compound CC(=O)N(C)CC(C(=O)N(Cc1ccncc1)C1C=CS(=O)(=O)C1)c1ccc(-c2ccc(F)cc2)cc1 (stereo not drawn) [I-452] : ____
> 50 µM

Reported IC50, compound COc1cc(CN(C(=O)C(OCc2cnn(C)c2)c2ccc(-c3ccc(F)c(F)c3)cc2F)[C@@H]2C=CS(=O)(=O)C2)ccn1 (single isomer, unassigned) [I-743] : ____
> 50 µM

Reported IC50, compound CCOc1cc(CN(C(=O)Cc2ccc(-n3cccc3)cc2)C2C=CS(=O)(=O)C2)ccn1 (stereo not drawn) [I-141] : ____
0.5 to 5 µM

Reported IC50, compound COCCc1cccn1-c1ccc(CC(=O)N(Cc2ccccc2)C2C=CS(=O)(=O)C2)cc1 (stereo not drawn) [I-384] : ____
> 50 µM

Reported IC50, compound CC(C)(O)c1cc(CN(C(=O)Cc2ccc(-n3cccc3)cc2F)C2C=CS(=O)(=O)C2)ccn1 (single isomer, unassigned) [I-469] : ____
> 50 µM

Reported IC50, compound CC(C)(O)c1cc(CN(C(=O)Cc2ccc(S(F)(F)(F)(F)F)cc2)C2C=CS(=O)(=O)C2)ccn1 (stereo not drawn) [I-39] : ____
< 0.5 µM

Reported IC50, compound O=C(Cn1ncc2ccc(C(F)(F)F)cc21)N(Cc1ccncc1)C1C=CS(=O)(=O)C1 (stereo not drawn) [I-455] : ____
> 50 µM

Reported IC50, compound CC(C)(O)c1cc(CN(C(=O)C(OCc2ccccc2)c2ccc(-c3ccc(F)c(F)c3)cc2F)[C@@H]2C=CS(=O)(=O)C2)ccn1 (single isomer, unassigned) [I-814] : ____
0.5 to 5 µM

Reported IC50, compound CNC(=O)C(C(=O)N(Cc1ccnc(C(C)(C)O)c1)[C@@H]1C=CS(=O)(=O)C1)c1ccc(-c2ccc(F)c(F)c2)cc1F (stereo partly drawn) [I-3] : ____
< 0.5 µM

Reported IC50, compound O=C(c1cnn(Cc2ccccc2)c1)N(Cc1ccncc1)C1C=CS(=O)(=O)C1 (stereo not drawn) [I-538] : ____
> 50 µM

Reported IC50, compound O=C(Cn1cc(-c2cc(F)c(F)c(F)c2)cn1)OCC1(c2csc(CNC3C=CS(=O)(=O)C3)n2)CC1 (stereo not drawn) [I-823] : ____
> 50 µM

Reported IC50, compound O=C(Cn1cc(-c2ccc(F)c(F)c2)cn1)N(Cc1ccnc(OCCN2CCOCC2)c1)C1C=CS(=O)(=O)C1 (stereo not drawn) [I-761] : ____
< 0.5 µM

These entries and their values trace back to patent US20260297070A1.
